- Test system: Pasteurella multocida
- experiment_notes: minimum inhibitory concentration (MIC)
- condition_summary: isolate (source animal id): 274
parameter: minimum inhibitory concentration

# molecule, parameter, value_reported
data = [
    ("CCCNC[C@]1(O)[C@H](C)O[C@@H](O[C@H]2[C@H](C)[C@@H](O[C@@H]3O[C@H](C)C[C@H](N(C)C)[C@H]3O)[C@](C)(O)C[C@@H](C)CN[C@H](C)[C@@H](O)[C@](C)(O)[C@@H](CC)OC(=O)[C@@H]2C)C[C@@]1(C)OC [Tulathromycin]", "minimum inhibitory concentration", "≤ 8 µg/mL"),
    ("CCCN1C[C@H](C)[C@@H](O)[C@](C)(O)[C@@H](CC)OC(=O)[C@H](C)[C@@H](O[C@H]2C[C@@](C)(OC)[C@@H](O)[C@H](C)O2)[C@H](C)[C@@H](O[C@@H]2O[C@H](C)C[C@H](N(C)C)[C@H]2O)[C@](C)(O)C[C@H]1C [Gamithromycin]", "minimum inhibitory concentration", "8 µg/mL"),
    ("CN(C)[C@@H]1C(O)=C(C(N)=O)C(=O)[C@@]2(O)C(O)=C3C(=O)c4c(O)cccc4[C@@](C)(O)[C@H]3C[C@@H]12 [Tetracycline]", "minimum inhibitory concentration", "> 8 µg/mL"),
    ("CN1C[C@@H]2C[C@H]1CN2c1cc2c(cc1F)c(=O)c(C(=O)O)cn2C1CC1 [Danofloxacin]", "minimum inhibitory concentration", "> 1 µg/mL"),
]
